The measured values listed here are drawn from patent US20210255193A1.

# study_system: HDHD3 Haloacid dehalogenase-like hydrolase domain-containing protein 3 (Homo sapiens)
# Construct: isoTOP-ABPP experiments performed in cell lysates (in vitro); endogenous in cells; host or cells: soluble proteome of human cancer cell lines (MDA-MB-231; Ramos and Jurkat also prepared)
# Sequence (Q9BSH5 whole entry, the tested form may be a part): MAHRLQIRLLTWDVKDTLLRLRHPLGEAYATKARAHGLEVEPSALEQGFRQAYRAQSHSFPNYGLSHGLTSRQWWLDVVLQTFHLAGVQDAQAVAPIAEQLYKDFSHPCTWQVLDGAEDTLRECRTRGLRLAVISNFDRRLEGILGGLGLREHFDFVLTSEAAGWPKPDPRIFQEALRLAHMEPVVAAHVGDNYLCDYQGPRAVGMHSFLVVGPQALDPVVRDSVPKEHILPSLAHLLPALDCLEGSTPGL
# experiment: competitive isoTOP-ABPP
# Assay type: binding
# experimental_setup: Q9BSH5_K15; 50 uM, 231 sol, in vitro
# Experimental: In vitro covalent fragment treatment for isoTOP-ABPP. All compounds were made up as solutions in DMSO (100×) and were used at a final concentration of 50 μM for activated esters and 100 μM for guanidinylating agents. […] R value calculation and processing. The ratios of light and heavy MS1 peaks for each unique peptide were quantified with a CIMAGE software using default parameters (3 MS1 acquisitions per peak and signal to noise threshold set to 2.5). […]
metric: R value (DMSO/fragment) for probe 1 labeling
One number for each entry.

# input molecule: O=C(Oc1c(F)c(F)c(F)c(F)c1F)c1cc(C(F)(F)F)cc(C(F)(F)F)c1 [fragment 21] ; wanted: its R value (DMSO/fragment) for probe 1 labeling 1.0

# input molecule: Cn1cc(CC(=O)Oc2c(F)c(F)c(F)c(F)c2F)c2ccccc21 [fragment 22] ; wanted: its R value (DMSO/fragment) for probe 1 labeling 1.1

Provide R value (DMSO/fragment) for probe 1 labeling for all items below, preserving their order.
1. COc1cc(CCC(=O)Oc2c(F)c(F)c(F)c(F)c2F)cc(OC)c1OC [fragment 23]
2. O=C(CCc1cn(-c2ccccc2)nc1-c1ccccc1)Oc1c(F)c(F)c(F)c(F)c1F [fragment 19]

1.3
20.0

# input molecule: O=C(Oc1c(F)c(F)c(F)c(F)c1F)C(c1ccccc1)c1ccccc1 [fragment 20, Pentafluorophenyl 2,2-diphenylacetate] ; wanted: its R value (DMSO/fragment) for probe 1 labeling 1.1

* * *

So I've got a bunch of compounds here, and I need their isoTOP-ABPP ratio (R) at liganded lysine P04179_K68 values.
# study_system: SOD2 Superoxide dismutase (Homo sapiens, UniProt P04179)
# Construct: isoTOP-ABPP experiments performed in cell lysates (in vitro); endogenous in cells; host or cells: MDA-MB-231 soluble lysate
# Sequence (P04179 25-222): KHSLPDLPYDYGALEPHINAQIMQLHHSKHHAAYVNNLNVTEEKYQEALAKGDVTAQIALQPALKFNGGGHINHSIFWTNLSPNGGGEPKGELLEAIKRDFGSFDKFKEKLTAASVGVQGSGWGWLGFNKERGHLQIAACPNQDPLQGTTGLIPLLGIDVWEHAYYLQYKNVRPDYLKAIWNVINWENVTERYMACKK
# experiment: competitive isoTOP-ABPP
# Format: binding
# experimental_setup: 50 uM, in vitro, sol, 231
Give bare numbers.

Examples from the recorded data:
# input compound: O=C(Oc1ccc([N+](=O)[O-])cc1[N+](=O)[O-])c1ccc(Oc2ccccc2)cc1 [fragment 39, 2,4-Dinitrophenyl 4-phenoxybenzoate] ; wanted: its isoTOP-ABPP ratio (R) at liganded lysine P04179_K68 1.0

# input compound: "CC(C)(C)OC(=O)NCCCC(=O)Oc1ccc([N+](=O)[O-])cc1[N+](=O)[O-]" ; wanted: its isoTOP-ABPP ratio (R) at liganded lysine P04179_K68 4.8

# input compound: "O=C(CCc1coc2cc(F)ccc2c1=O)Oc1ccc([N+](=O)[O-])cc1[N+](=O)[O-]" ; wanted: its isoTOP-ABPP ratio (R) at liganded lysine P04179_K68 2.1

# input compound: "O=C(Oc1ccc([N+](=O)[O-])cc1[N+](=O)[O-])c1ccc(-c2ccccc2)cc1" ; wanted: its isoTOP-ABPP ratio (R) at liganded lysine P04179_K68 1.7

Now consider the entry below.
# input compound: CC(=O)Oc1ccc([N+](=O)[O-])cc1[N+](=O)[O-] [fragment 43, 2,4-Dinitrophenyl acetate] ; wanted: its isoTOP-ABPP ratio (R) at liganded lysine P04179_K68 1.4
